# TGT: GORASP2, Q9H8Y8
# ASSAY_DETAILS: holdup assay
# Parameters: key: below the threshold = too weak to quantify, mostly under pKd 3.1 to 4
# CONDITION_INFO: plain residues with an end cap or a label only (N-terminal biotin on a linker: ado-ado)

BINDER | pKd
FNSYSLTGYV [CLDN2, P57739] | 4.36
LKVPPEERLI [CRB2, Q5IJ48] | 3.62
RRLPGKETMA [GRIK2, Q13002] | 3.55
TKGPRGPTRV [SAPCD1, Q5SSQ6] | 3.96
QSPANIYYKV [EFNB1, P52799] | 5.16
EVEEFPETSV [TRPV3, Q8NET8] | 3.51
